- System: MeWo
- assay.explanation: CellTiter-Glo cell proliferation inhibition, MeWo
- Type: cell-based, human
- setup.conditions: Homo sapiens; MeWo cells, 72 hours, CellTiter-Glo
Entries annotated with measured IC50
Could you give me the number in µM? Just the number is fine.

Below: 2 compounds and their reported IC50.
1. O=C(Nc1ccc(-c2oc3cc(F)c(-c4nnn[nH]4)cc3c2C2CCC2)cc1)C(=O)Nc1ccc(N2CCC3(CCOC3)CC2)cc1 [Example 125]
0.764
2. O=C(Nc1ccc(-c2ccsc2)cc1)C(=O)Nc1ccc(-c2cc3cc(F)c(-c4nnn[nH]4)c(F)c3n2C2CCC2)cc1 [Example 134]
0.27

# evaluate next
Give the reported IC50 for O=C(Nc1ccc(-c2ccsc2)cc1)C(=O)Nc1ccc(-c2cc3ccc(-c4nnn[nH]4)nc3n2C2CCC2)cc1 [Example 129] (system: MeWo).
0.176
